The reported measurements were obtained from ChEMBL document CHEMBL1132106.

Biological target: Vitamin D-binding protein (Homo sapiens)
Sequence (whole entry): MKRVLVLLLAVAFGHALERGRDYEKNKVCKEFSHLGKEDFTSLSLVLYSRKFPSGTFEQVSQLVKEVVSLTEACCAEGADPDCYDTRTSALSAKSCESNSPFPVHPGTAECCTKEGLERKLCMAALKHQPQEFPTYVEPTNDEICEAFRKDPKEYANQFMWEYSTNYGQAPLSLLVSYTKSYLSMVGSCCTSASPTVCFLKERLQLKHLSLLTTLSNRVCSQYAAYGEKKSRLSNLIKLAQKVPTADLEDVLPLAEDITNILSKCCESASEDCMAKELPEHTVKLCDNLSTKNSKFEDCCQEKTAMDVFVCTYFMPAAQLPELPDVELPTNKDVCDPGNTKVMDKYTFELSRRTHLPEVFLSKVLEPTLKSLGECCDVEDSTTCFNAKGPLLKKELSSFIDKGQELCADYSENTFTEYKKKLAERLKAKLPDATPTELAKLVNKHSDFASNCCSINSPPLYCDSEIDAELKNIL
Test: Binding affinity for human vitamin D binding protein (hDBP) relative to 1,25(OH)2D3 (100)
readoutLabel: Relative binding affinity

// below: answered compounds
>>> print(df.to_string())
                               samplesmiles                             targetofassay  reported
0  C=C1/C(=C\C=C2/CCC[C@]3(C)[C@@H]([C@@H](C)CCCC(C)(C)O)CC[C@@H]23)C[C@@H](O)C[C@@H]1O  Vitamin D-binding protein (Homo sapiens)       0.2
1  C=C1/C(=C/C=C2/CCC[C@]3(C)C([C@H](C)CC#CC(C)(C)O)=CC[C@@H]23)C[C@@H](O)C[C@@H]1O  Vitamin D-binding protein (Homo sapiens)         0
2  C=C1/C(=C\C=C2/CCC[C@]3(C)[C@@H]([C@H](C)OCCC(C)(C)O)CC[C@@H]23)C[C@@H](O)C[C@@H]1O  Vitamin D-binding protein (Homo sapiens)         0

P = C[C@H]([C@@H](C)CCCC(C)(C)O)[C@@]1(C)CCC/C(=C\C=C2C[C@@H](O)C[C@H](O)C2)C1
Q = C[C@H](CCCC(C)(C)O)[C@H]1CC[C@H]2/C(=C/C=C3C[C@@H](O)C[C@H](O)C3)CCC[C@]12C
R = C[C@H](CCCC(C)(C)O)[C@@H](C)[C@@]1(C)CCC/C(=C\C=C2C[C@@H](O)C[C@H](O)C2)C1
Sort entries by Relative binding affinity from minimum to maximum value. Response format: the labels, sorted as the prompt asks.
P, R, Q
